Sourced from the supplement of paper PMC13380429

Test system: U2OS
assay.summary: cell viability relative to DMSO; higher = less toxic
measurement.context: 72 h; 100 nM
Consider the following compounds; for each one, report its cell viability.
Give bare numbers, in %.

compound: NS(=O)(=O)c1cc2c(cc1Cl)N=C(CSCc1ccccc1)NS2(=O)=O [benzthiazide]
observed.value: 94.6

compound: CNC[C@H](O)[C@@H](O)[C@H](O)[C@H](O)CO
observed.value: 104

compound: O=C(NCc1ccccc1)c1csc(Nc2ccncn2)n1
observed.value: 100

compound: O=C(NC1CCN(CCCCC2(C(=O)NCC(F)(F)F)c3ccccc3-c3ccccc32)CC1)c1ccccc1-c1ccc(C(F)(F)F)cc1 [lomitapide]
observed.value: 104

compound: CC(=O)Nc1ccc(OC[C@](C)(O)C(=O)Nc2ccc([N+](=O)[O-])c(C(F)(F)F)c2)cc1
observed.value: 94.8

Count: 7. Required value per item: cell viability.
1. CCCCS(=O)(=O)N[C@@H](Cc1ccc(OCCCCC2CCNCC2)cc1)C(=O)O
2. COc1cc(C(=O)N2CCC(N3CCN(C)CC3)CC2)ccc1Nc1ncc2c(n1)N(C)c1ccccc1C(=O)N2C
3. CCN(CC)CCOC(=O)C(c1ccccc1)C1CCCCC1 (configuration not stated)
4. C[C@@H](N)c1ccc(C(=O)Nc2ccnc3[nH]ccc23)cc1
5. Nc1nc(CC(=O)Nc2ccc(CCNC[C@H](O)c3ccccc3)cc2)cs1
6. COc1ccccc1CC(=N)N1C[C@@H]2C(=O)CCC(c3ccccc3)(c3ccccc3)[C@@H]2C1
7. CC[C@H](C)[C@@H]([C@@H](CC(=O)N1CCC[C@H]1[C@H](OC)[C@@H](C)C(=O)N[C@@H](Cc1ccccc1)c1nccs1)OC)N(C)C(=O)[C@@H](NC(=O)[C@H](C(C)C)N(C)C)C(C)C

[98.7, 98.5, 100, 99, 93.6, 101, 15.4]

# per-item lookup of cell viability; items listed below
1. Cc1ccc(Sc2cncc3sc(C(N)=O)cc23)cc1
2. NC1CCN(c2cccc(Cl)n2)CC1
3. CCCN(C/C=C/I)C1CCc2cccc(O)c2C1 (configuration not stated) [8-hydroxy-PIPAT]
4. COc1ccccc1Oc1c(NS(=O)(=O)c2ccc(C)cn2)nc(-c2ccncc2)nc1OC
5. Cc1ccc(F)cc1C(=O)Nc1ccc(C(=O)N2Cc3cccn3Cc3ccccc32)c(Cl)c1

1: 110; 2: 101; 3: 102; 4: 98.8; 5: 101

* * *

System: A549-ACE2 infected with SARS-CoV-2
assay.summary: cell count relative to DMSO; higher = less toxic
measurement.context: 0.1 µM; 24 h
measured.parameter: cell count (%)
Give bare numbers, in %.

Each compound below has a recorded value; state its cell count.
1. CCn1c2ccccc2c2cc(Nc3ccnc(NCCCN4CCOCC4)n3)ccc21 [EHop-016]
2. CC(C)C[C@H](NC(=O)CNC(=O)c1cc(Cl)ccc1Cl)B(O)O [ixazomib]
3. CN1C(=O)/C(=C2/C(=O)Nc3ccccc32)c2ccccc21 [meisoindigo]
4. O=C(NC1CCN(CCCCC2(C(=O)NCC(F)(F)F)c3ccccc3-c3ccccc32)CC1)c1ccccc1-c1ccc(C(F)(F)F)cc1 [lomitapide]
5. O=C(c1ccc(-c2ccc(Cl)cc2)o1)N(Cc1ccccn1)c1ccc(N2CCNCC2)cc1 [MK2-IN-1]

[93, 90, 101, 96, 100]

* * *

System: HepG2
assay.summary: cell viability relative to DMSO; higher = less toxic
measurement.context: 72 h; 100 nM
Can you tell me cell viability for the items I'm about to list?
One number for each entry, in %.

Examples with answers:
compound: CC(=O)O[C@]1(C(C)=O)CC[C@H]2[C@@H]3C=CC4=CC(=O)CC[C@]4(C)[C@H]3CC[C@@]21C [6,7-dehydro-17-acetoxy-progesterone]
cell viability, %: 105
//
compound: CCC(=O)O[C@@H]1CC(=O)O[C@H](C)C/C=C/C=C/[C@H](OC(C)=O)[C@H](C)C[C@H](CC=O)[C@H](O[C@@H]2O[C@H](C)[C@@H](O[C@H]3C[C@@](C)(OC(C)=O)[C@@H](OC(=O)CC)[C@H](C)O3)[C@H](N(C)C)[C@H]2O)[C@H]1OC
cell viability, %: 103
//
compound: N[C@@H](CC(=O)N1CCn2c(nnc2C(F)(F)F)C1)Cc1n[nH]c2c(F)c(F)ccc12
cell viability, %: 114
//
compound: CC(C)N(CCNC(=O)CN1CCCC1=O)C(C)C
cell viability, %: 97.6
//
compound: O=C(NCCN1CCOCC1)c1ccc(Cl)cc1 [moclobemide]
cell viability, %: 108
//
compound: CCOC(=O)OC(C)OC(=O)[C@@H]1N2C(=O)[C@@H](NC(=O)[C@H](N)c3ccccc3)[C@H]2SC1(C)C (some centres undefined)
cell viability, %: 103

For each entry beneath this line, provide reported cell viability.
1. O=C(c1ccc(-c2ccc(Cl)cc2)o1)N(Cc1ccccn1)c1ccc(N2CCNCC2)cc1
2. CC(C)c1ccccc1S(=O)(=O)c1cc(N)c2ncccc2c1[N+](=O)[O-]
3. CCn1c2ccccc2c2cc(Nc3ccnc(NCCCN4CCOCC4)n3)ccc21
4. O=C(NC1CCN(CCCCC2(C(=O)NCC(F)(F)F)c3ccccc3-c3ccccc32)CC1)c1ccccc1-c1ccc(C(F)(F)F)cc1 [lomitapide]
5. CC(C)(Oc1ccc(Cl)cc1)C(=O)O
6. CN(C)CCOC(c1ccccc1)c1ccccc1 [diphenhydramine]

1: 115; 2: 100; 3: 98.5; 4: 106; 5: 95.6; 6: 95.3

Could you report cell viability for every entry in the following list?
1. Cc1cccc(C)c1NC(=O)C[N+](C)(C)C
2. CO[C@@]1(NC(=O)C2SC(=C(C(N)=O)C(=O)O)S2)C(=O)N2C(C(=O)O)=C(CSc3nnnn3C)CS[C@@H]21 (some centres undefined)
3. C#C[C@]1(O)CC[C@H]2[C@@H]3CCC4=CC(=NO)CC[C@@H]4[C@H]3CC[C@@]21CC (mixture of isomers)
4. Cc1cccc(C)c1NC(=O)[C@@H](C)N [tocainide]
5. CCn1cc(C(=O)O)c(=O)c2cc(F)c(N3CCNCC3)cc21

1. 99
2. 99.1
3. 105
4. 91.5
5. 102

Hi there! I need cell viability for each item below, if you can.
1. COc1c2ccoc2cc2oc(=O)ccc12
2. CCCCOc1ccc(C(=O)CCN2CCCCC2)cc1

1: 90; 2: 106

* * *

Exercise: for every item that follows, state its recorded drug sensitivity score.
Tested on: HepG2
assay.summary: drug sensitivity score (DSS) for viability; higher = more toxic; extreme values may be limits of the assay
measurement.context: 72 h
One number for each entry.

Look up drug sensitivity score for the entries below, preserving their order.
1. Cc1cccc(C)c1NC(=O)[C@@H](C)N [tocainide]
2. CC(C)(Oc1ccc(Cl)cc1)C(=O)O [clofibric-acid]
3. C/C=C/c1cc(OC)c(OC)cc1OC [alpha-asarone]
4. CC(C)N(CCNC(=O)CN1CCCC1=O)C(C)C [pramiracetam]
5. CCn1cc(C(=O)O)c(=O)c2cc(F)c(N3CCNCC3)cc21 [norfloxacin]
6. O=c1ccn([C@@H]2O[C@H](CO)[C@@H](O)[C@H]2O)c(=O)[nH]1 [uridine]

1: 0; 2: 0; 3: 0; 4: 0; 5: 0; 6: 0.8

* * *

Test system: Caco-2
assay.summary: drug sensitivity score (DSS) for viability; higher = more toxic; extreme values may be limits of the assay
measurement.context: 72 h
measured.parameter: drug sensitivity score
One number for each entry.

Use these answered entries as a reference point.
compound: CN1CCC(Nc2ncc3ncnc(Nc4ccc(F)c(Cl)c4)c3n2)CC1 [BIBX-1382]
measured.parameter: drug sensitivity score
observed.value: 4.4
//
compound: CC1=NN(c2ccc(C)c(C)c2)C(=O)/C1=N\Nc1cccc(-c2cccc(C(=O)O)c2)c1O [eltrombopag]
measured.parameter: drug sensitivity score
observed.value: 0
//
compound: Nc1nc(CC(=O)Nc2ccc(CCNC[C@H](O)c3ccccc3)cc2)cs1 [mirabegron]
measured.parameter: drug sensitivity score
observed.value: 0
//
compound: CCN1CCN(Cc2ccc(C(=O)Nc3ccc(C)c(Oc4ccc5c(c4)CC(=O)N5)c3)cc2C(F)(F)F)CC1 [DDR1-IN-1]
measured.parameter: drug sensitivity score
observed.value: 3.9

# per-item lookup of drug sensitivity score; items listed below
1. COc1cc2c(Oc3ccc(NC(=O)C4(C(=O)Nc5ccc(F)cc5)CC4)cc3F)ccnc2cc1OCCCN1CCOCC1 [foretinib]
2. Nc1c(CC(=O)O)cccc1C(=O)c1ccccc1 [amfenac]
3. c1ccc(C[C@H](c2ccccc2)N2CCCCC2)cc1 (racemic) [1-(1,2-diphenylethyl)piperidine-(+/-)]
4. CC1(C)CC[C@]2(NC(=O)C(C)(F)F)CC[C@]3(C)[C@H](C(=O)C=C4[C@@]5(C)C=C(C#N)C(=O)C(C)(C)[C@@H]5CC[C@]43C)[C@@H]2C1 [Omaveloxolone (RTA-408)]

1. 9.5
2. 0
3. 0
4. 14.5

Quick one: give me drug sensitivity score for each item below, same order please.
1. CCn1cc(-c2ccnc3[nH]c(-c4cccc(CN(C)C)c4)cc23)c(-c2ccc(NC(=O)N(C)C)cc2)n1
2. CCN(CC)C(=S)SSC(=S)N(CC)CC [disulfiram]
3. O=C1c2c(O)cccc2C([C@@H]2O[C@H](CO)[C@@H](O)[C@H](O)[C@H]2O)c2cc(CO)cc(O)c21 (stereo partly specified) [aloin]
4. CCN[C@H]1CN(CCCOC)S(=O)(=O)c2sc(S(N)(=O)=O)cc21 [brinzolamide]
5. CC(Cc1ccccc1)NCCC(c1ccccc1)c1ccccc1 (stereo unspecified) [prenylamine]
6. CC[C@H](C)[C@@H]([C@@H](CC(=O)N1CCC[C@H]1[C@H](OC)[C@@H](C)C(=O)N[C@@H](Cc1ccccc1)c1nccs1)OC)N(C)C(=O)[C@@H](NC(=O)[C@H](C(C)C)N(C)C)C(C)C [dolastatin-10]
7. COc1cc(C(=O)c2c(C)oc3c(O)c(OC)ccc23)cc(OC)c1OC [BNC105]

3.4
27.5
0
0
0.1
31.3
30.3
